Test system: MS2 coat protein
measurement_notes: apparent KD of MS2 coat protein; designed switch direction (-1 OFF switch, 1 ON switch): -1; higher = weaker reporter binding
condition_notes: input ligand: none
The reader will find reported apparent KD of MS2 coat protein values listed item by item below.

{"macromolecule_sequence": "GAGAAACAUGAGGAUCACCCAUGUAAGGAUAUGGCGAGAGCUGGAGUACUAGCGCCGUUCAGAAGGUACAUGAG [Eternabot (L2) Solution 27] (Eterna round: R97, puzzle: Exclusion 1)", "apparent KD of MS2 coat protein": "95.9 nM"}
{"macromolecule_sequence": "CCAAGCUUUUUCAUUAACAACAUGAGGAUCACCCAUGUUUAAGCUAUUACUUUUGGGCUCUUUAGUGCUCGUCUUAU [JR_STOV1_Sub040] (Eterna round: R97, puzzle: Sensor, turn-off variant 1)", "apparent KD of MS2 coat protein": "13.9 nM"}
{"macromolecule_sequence": "GACCGGUAAGGAUAUGUAUCUUUCAGGACACUACCGAAGAUGCAGAAGGUACAUGAGGAUCACCCAUGUGGGCU [Eternabot (L1) Solution 36] (Eterna round: R97, puzzle: Exclusion 4)", "apparent KD of MS2 coat protein": "75.8 nM"}
{"macromolecule_sequence": "UUUAUGUCAGGAUAUACAUGAGGAUCACCCAUGUAUAUCUUAAAGUAUACAUGGGAAUGUAGAAGGGACGUCCU [LRO-Excl05-29-mod of Pseudoloop5 by Omei] (Eterna round: R97, puzzle: Exclusion 3)", "apparent KD of MS2 coat protein": "30.2 nM"}
{"macromolecule_sequence": "GGAAGGUGAGGAUAUACUAAGCCGGAAACGGCAGGUGGGAGACAUGAGGAUCACCCAUGUAGAAGGCACGGAGA [AK-MS2ROC-r4-exclusion2-18] (Eterna round: R97, puzzle: Exclusion 2)", "apparent KD of MS2 coat protein": "113 nM"}
